B1: Pistol ribozyme (parent)
chain: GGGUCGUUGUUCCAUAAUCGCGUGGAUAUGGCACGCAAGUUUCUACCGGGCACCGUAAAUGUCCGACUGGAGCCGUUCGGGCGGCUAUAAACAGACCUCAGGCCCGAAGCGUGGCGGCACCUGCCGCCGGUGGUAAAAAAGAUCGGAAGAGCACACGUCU

Variants of: B1
Test: aptazyme ON/OFF ratio, guanine; higher = stronger switching; co-transcriptional cleavage with and without guanine
Measured aptazyme ON/OFF ratio, listed per entry for reference.
Measured Property: aptazyme ON/OFF ratio

> print(dat)
                      mutation.code      measured.property  quantitative.readout
 1                U7A U8C U10G C13G  aptazyme ON/OFF ratio                  1.24
 2               U8C U11A C12G C13U  aptazyme ON/OFF ratio                  1.14
 3  U7A U8C G9A U10A U11A C12A C13A  aptazyme ON/OFF ratio                  1.11
 4      U7G G9A U10C U11A C12G C13A  aptazyme ON/OFF ratio                  1.11
 5            U7G U8A G9C U10C C13A  aptazyme ON/OFF ratio                  1.01
 6       U7A U8A G9U U10C U11A C13G  aptazyme ON/OFF ratio                  1.17
 7          U7G U10C U11G C12G C13A  aptazyme ON/OFF ratio                  1.11
 8                U8A G9U U10G U11G  aptazyme ON/OFF ratio                  1.09
 9           U8G G9C U10G U11G C12A  aptazyme ON/OFF ratio                  1.21
10      U7A G9U U10C U11G C12A C13A  aptazyme ON/OFF ratio                  1.05
11       U7G U8G G9C U10A U11C C12G  aptazyme ON/OFF ratio                  1.11
12  U7G U8G G9A U10G U11A C12G C13U  aptazyme ON/OFF ratio                  1.26
13       U7G U8C G9A U10A C12U C13U  aptazyme ON/OFF ratio                  1.05
14       U7A U8C G9U U10G U11C C12G  aptazyme ON/OFF ratio                  1.32
15  U7A U8C G9U U10A U11A C12U C13U  aptazyme ON/OFF ratio                  1.16
16  U7G U8G G9A U10C U11C C12G C13G  aptazyme ON/OFF ratio                  1.03
17                U7C G9U U11G C13A  aptazyme ON/OFF ratio                  1.21
18            U7G U8A G9A U10A C12U  aptazyme ON/OFF ratio                  1.19
19      U7A U8A U10A U11G C12A C13G  aptazyme ON/OFF ratio                  1.07
20               U7A U10C U11C C12G  aptazyme ON/OFF ratio                  1.14
21       U7G U8G G9A U10A U11C C12U  aptazyme ON/OFF ratio                   1.1
22      U8A G9U U10A U11A C12G C13A  aptazyme ON/OFF ratio                  1.27
23       U7G U8C G9C U11G C12G C13A  aptazyme ON/OFF ratio                  1.12
24                    U7C U11G C12U  aptazyme ON/OFF ratio                  1.26
25  U7C U8A G9C U10C U11G C12A C13A  aptazyme ON/OFF ratio                  1.21
26  U7A U8C G9A U10G U11C C12A C13G  aptazyme ON/OFF ratio                  1.25
27           U7A U8G U10G C12G C13G  aptazyme ON/OFF ratio                   1.3
28                U7C U8G U11G C12U  aptazyme ON/OFF ratio                  1.19
29                U7A U8G C12U C13G  aptazyme ON/OFF ratio                  1.24
30  U7C U8C G9A U10G U11G C12G C13A  aptazyme ON/OFF ratio                  1.15
31               G9C U10C C12G C13U  aptazyme ON/OFF ratio                  1.09
32       U7C U8C G9C U11A C12A C13G  aptazyme ON/OFF ratio                  1.14
33                 U7A U8A G9C C12U  aptazyme ON/OFF ratio                  1.26
34               G9A U10G U11A C12G  aptazyme ON/OFF ratio                  1.33
35                U7C U8G U11C C13G  aptazyme ON/OFF ratio                  1.12
36           U7G G9U U10A C12G C13G  aptazyme ON/OFF ratio                  1.24
37      U7G G9C U10A U11G C12G C13G  aptazyme ON/OFF ratio                  1.08
38       U7C U8G G9A U10G U11G C13G  aptazyme ON/OFF ratio                  1.39
39       U7C U8G G9C U11A C12G C13G  aptazyme ON/OFF ratio                  1.13
40      U7C G9A U10G U11C C12A C13A  aptazyme ON/OFF ratio                   1.2
41       U7A U8G G9C U10C U11A C12U  aptazyme ON/OFF ratio                  1.13
42                    G9U U10G C13A  aptazyme ON/OFF ratio                  1.52
43       U7C U8A G9C U10C C12U C13U  aptazyme ON/OFF ratio                  1.05
44      U8C G9A U10G U11C C12G C13U  aptazyme ON/OFF ratio                   1.2
45      U8C G9C U10G U11C C12A C13G  aptazyme ON/OFF ratio                  1.14
46  U7A U8C G9C U10A U11A C12A C13U  aptazyme ON/OFF ratio                  1.05
47  U7G U8A G9C U10A U11C C12G C13G  aptazyme ON/OFF ratio                  1.04
48      U7G G9A U10A U11G C12U C13A  aptazyme ON/OFF ratio                  1.07
49           U7A U8A U10C C12G C13G  aptazyme ON/OFF ratio                  1.19
50           U7G G9A U11A C12U C13A  aptazyme ON/OFF ratio                  1.16
51           U7A G9A U10C C12U C13A  aptazyme ON/OFF ratio                  1.08
52      U7G G9A U10G U11G C12G C13A  aptazyme ON/OFF ratio                  1.11
53  U7G U8C G9U U10G U11G C12G C13A  aptazyme ON/OFF ratio                  1.11
54  U7G U8G G9C U10C U11G C12U C13G  aptazyme ON/OFF ratio                  1.22
55                U7A G9C U11C C12A  aptazyme ON/OFF ratio                  1.09
56      U7C U8C U10G U11A C12U C13A  aptazyme ON/OFF ratio                  1.16
57  U7C U8C G9U U10A U11C C12A C13A  aptazyme ON/OFF ratio                  1.17
58           U8C G9C U10A U11C C12G  aptazyme ON/OFF ratio                   1.2
59      U7A U8G U10G U11C C12A C13A  aptazyme ON/OFF ratio                  1.39
60          G9C U10A U11G C12A C13G  aptazyme ON/OFF ratio                  1.17
61       U7A U8C G9U U10A U11A C12A  aptazyme ON/OFF ratio                  1.28
62       U7G U8G G9U U10A U11C C13U  aptazyme ON/OFF ratio                  1.07
63            U7G U8G G9U U11C C13G  aptazyme ON/OFF ratio                   1.1
64                         G9A U11A  aptazyme ON/OFF ratio                  2.53
65            U7G U8A G9C U10C C12G  aptazyme ON/OFF ratio                  1.07
66               U7G U10C C12U C13A  aptazyme ON/OFF ratio                  1.04
67           U7A U8C U10G U11C C13G  aptazyme ON/OFF ratio                  1.18
68           U7G G9U U10G U11G C13A  aptazyme ON/OFF ratio                  1.22
69               G9A U11G C12G C13U  aptazyme ON/OFF ratio                  1.15
70       U7C U8C G9U U10C U11A C12G  aptazyme ON/OFF ratio                  1.34
71           U7A U8G U11A C12U C13U  aptazyme ON/OFF ratio                  1.18
72                     U7G U8G U10A  aptazyme ON/OFF ratio                  2.24
73           U7G G9A U10A U11A C13A  aptazyme ON/OFF ratio                  1.14
74                U7C G9U U10C C13G  aptazyme ON/OFF ratio                  1.06
75      U7G G9C U10A U11C C12A C13U  aptazyme ON/OFF ratio                  1.36
76                U8G G9U U11G C12A  aptazyme ON/OFF ratio                  1.32
